Test: Plasma concentrations of compound 552 in beagle dogs during the CID study
Type: in vivo
Conditions: male, dog, iv, 7.5 mg/kg, high dose group 7.5 mg/kg/occasion, last day, one animal with particularly high AUC, read-out: average AUC0-t (converted)
Description: The test article No. 2 (compound 552) was intravenously infused via an implanted catheter over 45 minutes to all the animals in Group 4 four days before the start of TA1 (irinotecan) treatment and throughout the 28-day study period. […] The actual volume infused was calculated and adjusted based on the most recent practical body weight of each animal. The syringes/bags were changed at appropriate intervals as necessary and the weights recorded prior to the start and at the end of the infusion. […]
reported property: AUC(0-t) (ng·h/mL)
Numbers only here, please. The scale is ng·h/mL.

Entry CCC[C@@H]1NC(=O)[C@@H](C(C)C)NC(=O)[C@@H](Cc2ccc(O)c(Cl)c2)N[C@@H](C)COc2ccccc2CCCNC1=O [Compound 552] — recorded AUC(0-t) = 6350

====

Molecular target: human motilin receptor (Homo sapiens)
Assay: Competitive radioligand binding assay (motilin receptor)
Design: purchased PerkinElmer (SignalScreen) 6110544; host or cells: CHO cells, stably transfected; membranes
Details: Table 7; read-out: Binding Ki
pKi: −log10 of the molar value.
reported property: pKi

Examples from the recorded data:
[[record]]
molecule = "CC(C)[C@H]1NC(=O)[C@@H](Cc2cccc(C(F)(F)F)c2)NCCOc2ccccc2CCCNC(=O)[C@H](CN(C)C)NC1=O [Compound 502]"
obs_value = "≥ 8.00"

[[record]]
molecule = "CCC[C@@H]1NC(=O)[C@@H](C(C)C)NC(=O)[C@@H](Cc2ccc(O)c(C(C)(C)C)c2)NCCOc2ccccc2CCCNC1=O [Compound 553]"
obs_value = "≥ 8.00"


Now take the following molecule into account.
// molecule CCC[C@@H]1NC(=O)[C@@H](C(C)C)NC(=O)[C@@H](Cc2cccc(F)c2)N[C@@H](C)COc2ccccc2CCCNC1=O [Compound 551] , assay human motilin receptor (Homo sapiens), pKi value: ≥ 8.00

====

Molecular target: human motilin receptor (Homo sapiens, UniProt O43193)
Sequence (O43193 whole entry): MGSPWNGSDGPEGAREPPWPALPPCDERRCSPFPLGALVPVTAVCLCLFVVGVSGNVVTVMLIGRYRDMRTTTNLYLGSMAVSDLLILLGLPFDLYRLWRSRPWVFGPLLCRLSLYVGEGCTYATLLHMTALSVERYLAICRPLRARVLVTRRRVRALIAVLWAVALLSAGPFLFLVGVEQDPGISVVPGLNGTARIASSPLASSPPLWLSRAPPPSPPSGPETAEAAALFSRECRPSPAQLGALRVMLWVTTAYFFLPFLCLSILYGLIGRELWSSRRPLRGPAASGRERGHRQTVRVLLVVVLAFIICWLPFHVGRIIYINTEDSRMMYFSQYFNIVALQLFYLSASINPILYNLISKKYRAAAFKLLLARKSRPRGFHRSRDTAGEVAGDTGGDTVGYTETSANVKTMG
Assay: Aequorin functional assay (motilin receptor)
Conditions: functional activity, antagonist testing vs motilin 0.5 nM (EC80)
reported property: IC50

[[record]]
molecule = "CC(C)[C@H]1NC(=O)[C@@H](Cc2cccc(C(F)(F)F)c2)NCCOc2ccccc2CCCNC(=O)[C@H](CN)NC1=O [Compound 542]"
reported_property = "IC50"
obs_value = "≤ 10 nM"

[[record]]
molecule = "CCC[C@@H]1NC(=O)[C@@H](C(C)C)NC(=O)[C@@H](Cc2cccc(F)c2)N[C@@H](C)COc2ccccc2C[C@H](C)CNC1=O [Compound 570]"
reported_property = "IC50"
obs_value = "≤ 1 nM"

[[record]]
molecule = "CC(C)[C@H]1NC(=O)[C@@H](Cc2cccc(C(F)(F)F)c2)NCCOc2ccccc2C[C@@H](C)CNC(=O)[C@H](CNC(=N)N)NC1=O [Compound 504]"
reported_property = "IC50"
obs_value = "≤ 100 nM"

[[record]]
molecule = "CCC[C@@H]1NC(=O)[C@@H](C)NC(=O)[C@@H](Cc2cccc(F)c2)N[C@@H](C)COc2ccccc2CCCNC1=O [Compound 557]"
reported_property = "IC50"
obs_value = "≤ 10 nM"

[[record]]
molecule = "CC(C)[C@H]1NC(=O)[C@@H](Cc2cccc(F)c2)N[C@@H](C)COc2ccccc2C[C@H](C)CNC(=O)[C@H](CNc2ncccn2)NC1=O [Compound 550]"
reported_property = "IC50"
obs_value = "≤ 1 nM"


Now take the following molecule into account.
Entry CCC[C@@H]1NC(=O)[C@@H](C(C)C)NC(=O)[C@@H](Cc2cccc(F)c2)N[C@@H](C)COc2cccnc2CCCNC1=O [Compound 573] — recorded IC50 = ≤ 10 nM

====

Molecular target: human motilin receptor (Homo sapiens, UniProt O43193)
Assay: Competitive radioligand binding assay (motilin receptor)
Set-up: purchased PerkinElmer (SignalScreen) 6110544; host or cells: CHO cells, stably transfected; membranes
Conditions: [125I]-motilin competition, membranes of CHO cells with human motilin receptor; read-out: Ki
pKi: −log10 of the molar value.
reported property: pKi

[[record]]
test_smiles = "CCC[C@@H]1NC(=O)[C@@H](C(C)C)NC(=O)[C@@H](Cc2cccs2)N[C@@H](C)COc2ccccc2CCCNC1=O"
assay_system = "human motilin receptor (Homo sapiens, UniProt O43193)"
obs_value = "≥ 8.00"

[[record]]
test_smiles = "CC(C)[C@H]1NC(=O)[C@@H](Cc2cccc(F)c2)N[C@@H](C)COc2ccccc2CCCNC(=O)[C@H](CN2CCCC2)NC1=O"
assay_system = "human motilin receptor (Homo sapiens, UniProt O43193)"
obs_value = "≥ 7.00"

[[record]]
test_smiles = "CCC[C@@H]1NC(=O)[C@@H](C(C)C)NC(=O)[C@@H](Cc2cccc(F)c2)N[C@@H](C)COc2cccnc2CCCNC1=O"
assay_system = "human motilin receptor (Homo sapiens, UniProt O43193)"
obs_value = "≥ 7.00"


Entry CCC[C@@H]1NC(=O)[C@@H](C(C)C)NC(=O)[C@@H](Cc2cccc(OC)c2)N[C@@H](C)COc2ccccc2CCCNC1=O — recorded pKi = ≥ 8.00

====

Assay: Oral bioavailability in rat of representative formulations of compound 552
Assay type: in vivo
Settings: plasma, po, 8 mg/kg, oral 8 mg/kg, 5% HP-β-CD in water
reported property: Cmax
Write your answer as a measured quantity: the number, then the unit.

Entry CCC[C@@H]1NC(=O)[C@@H](C(C)C)NC(=O)[C@@H](Cc2ccc(O)c(Cl)c2)N[C@@H](C)COc2ccccc2CCCNC1=O [Compound 552] — recorded Cmax = 369 ng/mL

====

Target: human motilin receptor (Homo sapiens)
Experiment: Aequorin functional assay (motilin receptor)
Conditions: functional activity, antagonist testing vs motilin 0.5 nM (EC80)
pIC50: −log10 of the molar value.
The molecules listed here are annotated with their pIC50.

[[record]]
test_smiles = "C[C@H]1COc2ccccc2CCCNC(=O)[C@H](CC2CC2)NC(=O)[C@@H](C2CC2)NC(=O)[C@@H](Cc2cccc(F)c2)N1"
assay_system = "human motilin receptor (Homo sapiens)"
reported_property = "pIC50"
obs_value = "≥ 9.00"

[[record]]
test_smiles = "CC(C)[C@H]1NC(=O)[C@@H](Cc2cccc(F)c2)N[C@@H](C)COc2ccccc2C[C@H](C)CNC(=O)[C@H](CN)NC1=O"
assay_system = "human motilin receptor (Homo sapiens)"
reported_property = "pIC50"
obs_value = "≥ 9.00"

[[record]]
test_smiles = "CC(C)[C@H]1NC(=O)[C@@H](Cc2cccc(C(F)(F)F)c2)NCCOc2ccccc2C[C@H](C)CNC(=O)[C@H](CNC(=N)N)NC1=O"
assay_system = "human motilin receptor (Homo sapiens)"
reported_property = "pIC50"
obs_value = "≥ 8.00"

[[record]]
test_smiles = "CC(C)[C@H]1NC(=O)[C@@H](Cc2cccc(Cl)c2)NCCOc2ccccc2C[C@@H](C)CNC(=O)[C@H](CC2CC2)NC1=O"
assay_system = "human motilin receptor (Homo sapiens)"
reported_property = "pIC50"
obs_value = "≥ 7.00"

[[record]]
test_smiles = "CC(C)[C@H]1NC(=O)[C@@H](Cc2cccc(Cl)c2)NCCOc2ccccc2C[C@H](C)CNC(=O)[C@H](CC2CC2)NC1=O"
assay_system = "human motilin receptor (Homo sapiens)"
reported_property = "pIC50"
obs_value = "≥ 8.00"


Now take the following molecule into account.
// molecule CC(C)[C@H]1NC(=O)[C@@H](Cc2cccc(C(F)(F)F)c2)NCCOc2ccccc2CCCNC(=O)[C@H](CN2CCCC2)NC1=O , assay human motilin receptor (Homo sapiens), pIC50 value: ≥ 7.00

====

Assay: Oral bioavailability in rat of representative formulations of compound 552
Type: in vivo
Conditions: plasma, po, 8 mg/kg, oral 8 mg/kg, Cremophor EL/Lysorbate 80/Soybean oil
reported property: Cmax (ng/mL)
Numbers only here, please. The scale is ng/mL.

Entry CCC[C@@H]1NC(=O)[C@@H](C(C)C)NC(=O)[C@@H](Cc2ccc(O)c(Cl)c2)N[C@@H](C)COc2ccccc2CCCNC1=O [Compound 552] — recorded Cmax = 229

====

Assay: Pharmacokinetic analysis in rat (i.v., s.c., p.o.)
Assay type: in vivo
Conditions: male, Sprague-Dawley, plasma, sc, typical dose 2 mg/kg, read-out: Elimination (t1/2, min)
reported property: half-life (min)
Numbers only here, please. The scale is min.

Entry CCC[C@@H]1NC(=O)[C@@H](C(C)C)NC(=O)[C@@H](Cc2ccc(O)c(Cl)c2)N[C@@H](C)COc2ccccc2CCCNC1=O [Compound 552] — recorded half-life = 103

====

The molecules listed here are annotated with their B to A/A to B.
System: Caco-2 cells
Experiment: Caco-2 permeability
Type: in vitro ADME, human
Details: ratio of Papp
Write the number on its own, no unit after it.

Examples from the recorded data:
[[record]]
molecule = "CC(C)[C@H]1NC(=O)[C@@H](Cc2cccc(Cl)c2)NCCOc2ccccc2C(C)(C)CCNC(=O)[C@H](CC2CC2)NC1=O [Compound 590]"
assay_system = "Caco-2 cells"
obs_value = 6

[[record]]
molecule = "CC(C)[C@H]1NC(=O)[C@@H](Cc2cccc(C(F)(F)F)c2)NCCOc2ccccc2CCCNC(=O)[C@H](CN(C)C)NC1=O [Compound 502]"
assay_system = "Caco-2 cells"
obs_value = 2

[[record]]
molecule = "CNC[C@@H]1NC(=O)[C@@H](C(C)C)NC(=O)[C@@H](Cc2cccc(Cl)c2)NCCOc2ccccc2CCCNC1=O [Compound 512]"
assay_system = "Caco-2 cells"
obs_value = 37


Now take the following molecule into account.
// molecule CC(C)[C@H]1NC(=O)[C@@H](Cc2cccc(F)c2)NCCOc2ccccc2C[C@H](C)CNC(=O)[C@H](CN(C)C)NC1=O [Compound 515] , assay Caco-2 cells, B to A/A to B value: 3

Recorded values, source patent US9133235B2.
